B1: OR4K15 (parent)
chain: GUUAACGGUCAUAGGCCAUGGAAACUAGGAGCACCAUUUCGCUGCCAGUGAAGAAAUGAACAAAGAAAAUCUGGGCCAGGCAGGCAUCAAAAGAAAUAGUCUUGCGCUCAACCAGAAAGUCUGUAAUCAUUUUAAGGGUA

Variants of: B1
Assay: self-cleavage, relative activity (ratio to wild type); higher = more cleavage; in vitro, sequencing; the parent is a self-cleaving ribozyme
Give self-cleavage for every item shown.

G28A U131C : 0.99
A52G A89G : 1.84
A64G G137U : 2.23
U38G A62U : 1.41
A110G A114U : 0.03

Dear colleague, could you please provide self-cleavage for the variants listed below?
1. A89G A91U
2. C107G A117G
3. A55U
4. U122A
5. A62G U124C

Solution:
1: 2.19; 2: 0.01; 3: 1.13; 4: 1.21; 5: 0.94

Please look at the items below and tell me self-cleavage for each one, in order.
1. A59U U103C
2. A18U A94U
3. A64G A69G

Solution:
1. 0.31
2. 1.11
3. 1.36

Provide reported self-cleavage for each item, in the same order as listed.
1. U102A A116G
2. A27U U49C
3. C6U A69G
4. A36C U103C
5. U19A G137U
6. A5G C121U
7. U57A A92G
8. A82G U108C

Solution:
1. 0.18
2. 2.12
3. 1.05
4. 1.44
5. 1.52
6. 1.14
7. 1.42
8. 0.02
